tgt: recombinant full-length WRN protein (1-1432) (Homo sapiens)
Construct: recombinant full-length WRN protein (1-1432)
test_name: WRN unwinding activity, fluorogenic 384-well assay (Example A)
Format: biochemical
reported_conditions: WRN unwinding activity, 4 hr; Table 2; read-out: 4 hr UNW pIC50 (converted)
endpoint_name: IC50 (nM)

{"columns": ["molecule", "units_symbol", "IC50"],
 "data": [
  ["Cc1nc2cc(S(=O)(=O)N(C)c3ccc([C@H]4CC[C@@H](C)[C@@H](C(=O)Nc5ccc(C(F)(F)F)cc5F)[C@@H]4C(=O)O)cc3)ccc2n1C (relative stereo)", "nM", 2]
]}

A. CN[C@H]1C[C@H](c2ccc(N(C)S(=O)(=O)c3ccc4c(c3)nc(C)n4C)cc2)[C@@H](C(=O)O)[C@H](C(=O)Nc2ccc(C(F)(F)F)cc2F)C1 (single isomer, unassigned)
B. CC(=O)N(C)[C@@H]1C[C@H](c2ccc(N(C)S(=O)(=O)c3ccc4c(c3)nc(C)n4C)cc2)[C@@H](C(=O)O)[C@H](C(=O)Nc2ccc(C(F)(F)F)cc2F)C1 (stereo in doubt)
Input: Would you mind telling me which has the lower recorded IC50 between A and B ? Use the label to indicate which entry you chose.
Output: B
(B: 1.58 nM, A: 25.1 nM)

* * *

tgt: recombinant full-length WRN protein (1-1432) (Homo sapiens, UniProt Q14191)
Construct: recombinant full-length WRN protein (1-1432)
Sequence (Q14191 whole entry): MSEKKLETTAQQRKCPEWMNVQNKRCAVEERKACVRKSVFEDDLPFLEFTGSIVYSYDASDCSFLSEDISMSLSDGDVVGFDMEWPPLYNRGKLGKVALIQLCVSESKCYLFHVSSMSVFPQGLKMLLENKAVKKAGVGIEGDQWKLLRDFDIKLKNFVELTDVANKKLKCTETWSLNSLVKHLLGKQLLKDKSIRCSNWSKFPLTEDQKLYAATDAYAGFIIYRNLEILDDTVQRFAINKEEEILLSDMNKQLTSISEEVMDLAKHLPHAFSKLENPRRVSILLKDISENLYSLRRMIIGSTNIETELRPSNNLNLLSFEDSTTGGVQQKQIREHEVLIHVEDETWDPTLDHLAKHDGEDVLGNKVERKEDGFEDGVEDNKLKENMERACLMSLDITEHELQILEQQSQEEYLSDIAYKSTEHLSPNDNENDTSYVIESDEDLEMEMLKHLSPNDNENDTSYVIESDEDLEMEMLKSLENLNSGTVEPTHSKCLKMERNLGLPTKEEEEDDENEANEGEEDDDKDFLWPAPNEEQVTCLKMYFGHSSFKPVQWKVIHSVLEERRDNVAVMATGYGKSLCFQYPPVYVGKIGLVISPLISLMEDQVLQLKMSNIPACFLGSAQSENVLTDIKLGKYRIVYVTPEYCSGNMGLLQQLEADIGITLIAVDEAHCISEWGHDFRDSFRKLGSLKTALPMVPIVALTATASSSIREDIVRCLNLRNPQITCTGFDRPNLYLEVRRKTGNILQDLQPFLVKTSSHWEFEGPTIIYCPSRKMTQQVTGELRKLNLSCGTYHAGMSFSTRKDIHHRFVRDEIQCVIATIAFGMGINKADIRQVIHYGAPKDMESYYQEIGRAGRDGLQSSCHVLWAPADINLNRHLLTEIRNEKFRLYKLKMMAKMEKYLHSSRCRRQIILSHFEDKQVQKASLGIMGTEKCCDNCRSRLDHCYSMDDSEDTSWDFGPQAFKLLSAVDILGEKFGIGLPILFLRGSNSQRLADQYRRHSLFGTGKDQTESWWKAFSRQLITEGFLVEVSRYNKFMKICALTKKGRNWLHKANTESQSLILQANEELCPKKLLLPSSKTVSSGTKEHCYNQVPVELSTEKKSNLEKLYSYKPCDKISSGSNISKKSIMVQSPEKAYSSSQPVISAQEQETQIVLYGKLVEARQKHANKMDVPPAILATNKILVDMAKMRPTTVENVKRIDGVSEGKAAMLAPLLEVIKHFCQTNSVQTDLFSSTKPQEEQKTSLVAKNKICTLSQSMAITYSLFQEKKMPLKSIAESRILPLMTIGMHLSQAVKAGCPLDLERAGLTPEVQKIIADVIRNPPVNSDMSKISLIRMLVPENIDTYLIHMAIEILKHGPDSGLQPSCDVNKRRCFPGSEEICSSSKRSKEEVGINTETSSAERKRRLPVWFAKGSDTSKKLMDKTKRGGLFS
test_name: WRN unwinding activity, fluorogenic 384-well assay (Example A)
Format: biochemical
reported_conditions: WRN unwinding activity, 4 hr; Table 2; read-out: 4 hr UNW pIC50 (converted)
Structures can show the parent of a compound that is named as a salt.
endpoint_name: IC50 (nM)

Please review the entries below; each comes with its answer.
{"columns": ["compound", "IC50 (nM)"],
 "data": [
  ["Cc1nc2cc(S(=O)(=O)N(C)c3ccc([C@H]4CCC[C@@H](COc5ccc(C(F)(F)F)cc5)[C@@H]4C(=O)O)cc3)ccc2n1CCN [Example 216, formic acid salt]", 5.01],
  ["CN(c1ccc([C@H]2CCC[C@@H](C(=O)Nc3ccc(C(F)(F)F)cc3F)[C@@H]2C(=O)O)cc1)S(=O)(=O)c1ccccc1 [Example 109]", 1],
  ["Cc1nc2cc(S(=O)(=O)N(C)c3ccc([C@H]4C[C@@H](N(C)C)C[C@@H](C(=O)Nc5ccc(C(F)(F)F)cc5F)[C@@H]4C(=O)O)cc3)ccc2n1C (stereo in doubt) [Example 251]", 1],
  ["CN(c1ccc([C@H]2CCC[C@@H](C(=O)Nc3ccc(C(F)(F)F)cc3F)[C@@H]2C(=O)O)cc1)S(=O)(=O)c1cccc(C2CNC(=O)C2)c1 (some centres unmarked) [Example 113]", 1.58],
  ["Cc1nc2cc(S(=O)(=O)N(C)c3ccc([C@H]4C[C@@H](NCC(F)(F)F)C[C@@H](C(=O)Nc5ccc(C(F)(F)F)cc5F)[C@@H]4C(=O)O)cc3)ccc2n1C (stereo in doubt) [Example 334]", 1.58]
]}

I. CCc1ccc(NC(=O)[C@@H]2CCC[C@H](c3ccc(N(C)S(=O)(=O)c4ccc5c(c4)nc(C)n5C)cc3)[C@H]2C(=O)O)cc1 [Example 196]
II. O=C(O)[C@@H]1[C@@H](c2ccc(-c3cccc4[nH]ncc34)cc2)CCC[C@H]1C(=O)Nc1ccc(C(F)(F)F)cc1F [Example 1]
Input: Would you mind telling me which has the lower recorded IC50 between I and II ? Use the label to indicate which entry you chose.
Output: I

I. CN(c1ccc([C@H]2CCC[C@@H](C(=O)Nc3ccc(C(F)(F)F)cc3F)[C@@H]2C(=O)O)cc1)S(=O)(=O)c1cccc([C@H]2CCCNC2)c1 [Example 263]
II. CN(c1ccc([C@H]2CCC[C@@H](C(=O)Nc3ccc(C(F)(F)F)cc3F)[C@@H]2C(=O)O)cc1)S(=O)(=O)c1c(Cl)cc(C(F)(F)F)cc1Cl [Example 104]
III. CN1CCc2c(cccc2S(=O)(=O)N(C)c2ccc([C@H]3CCC[C@@H](C(=O)Nc4ccc(C(F)(F)F)cc4F)[C@@H]3C(=O)O)cc2)C1 [Example 114]
Input: Reorder: IC50, max to min. # answer = labels listed in requested order
Output: II, III, I

Origin of measurements: patent US12662451B2
